B1: CPEB3 Ribozyme (parent)
chain: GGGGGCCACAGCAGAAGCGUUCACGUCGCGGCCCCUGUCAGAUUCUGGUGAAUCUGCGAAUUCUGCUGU

Variants of: B1
Test summary: self-cleavage, relative activity (ratio to wild type); higher = more cleavage; co-transcriptional
Experimental endpoint: self-cleavage

> print(dat)
                               item.sequence  experimental.endpoint  meas.value
 1  GGGGGCCACAGCAGAAGCGUUCACGUCGCGGCCCCUGUCAAAUUCUAGUGAAUCUGCGAAUUCUGCUGU [G41A G47A]          self-cleavage       0.979
 2  GGGGGCCACAGCAGAAGCGUUCACGUCGCGGCCCCUGUCAGAUUCUGGUGAAAAUGCGAAUUCUGCUGU [U53A C54A]          self-cleavage       0.907
 3  GGGGGCCACAGCAGAAGCGUUCACGUCGCGGGCCCUGUCAGAUUCUGGUGAAUCUUCGAAUUCUGCUGU [C32G G56U]          self-cleavage       0.308
 4  GGGGGCCACAGCAGAAGCGUUCACGUCGCGGCCCCUGUCAGCUUCUGGUGAAUCUGCGAAUUCUGCGGU [A42C U67G]          self-cleavage       0.919
 5  GGGGGCCACAGCAGAAGCGUUCACGUCGCGGCCACUGUCAGAUUCUGAUGAAUCUGCGAAUUCUGCUGU [C34A G48A]          self-cleavage       0.862
 6  GGGGGCCACAGCAGAAGCGUUCACGUCGCGGCCCCUGUCAGAUUCUGUUGAAUCUGUGAAUUCUGCUGU [G48U C57U]          self-cleavage       0.388
 7  GGGGGCCACAGCAGAAGUGUUCACGUCGCGGCGCCUGUCAGAUUCUGGUGAAUCUGCGAAUUCUGCUGU [C18U C33G]          self-cleavage       0.304
 8  GGGGGCCCCAGCAGAAGCGUUCACGUCGCGACCCCUGUCAGAUUCUGGUGAAUCUGCGAAUUCUGCUGU [A8C G31A]          self-cleavage       0.888
 9  GGGGGCCAGAGCUGAAGCGUUCACGUCGCGGCCCCUGUCAGAUUCUGGUGAAUCUGCGAAUUCUGCUGU [C9G A13U]          self-cleavage       0.837
10  GGGGGCCACAGCAGAAGCGUUCACGUCGCGGCCCCUGUCAAAUUCUGGUGAAUCUGCGAAUUCUACUGU [G41A G65A]          self-cleavage       0.482
11  GGGGGCCACAGCAGAAGCGUUCACGUCGCGGCCCCUGUCAGAUCCUGGUGAAUCUGCGAAUUCUUCUGU [U44C G65U]          self-cleavage       0.488
12  GGGGACCACAGCAGAAGCGUUCACGUCGCGGCCCCUGUCAGAUUCUGGUGAAUCUGCGAAUUCUGUUGU [G5A C66U]          self-cleavage        0.88
13  GGGGGACACAGCAGAAGCGUUCACGUCGCGGCCCCUGUCAGAUUCUGGUGAAUGUGCGAAUUCUGCUGU [C6A C54G]          self-cleavage       0.246
14  GGGGGCCACAGCAGAAGCGUUCACGUCGCGCCCCCUGUCAGAUUCUGGUGUAUCUGCGAAUUCUGCUGU [G31C A51U]          self-cleavage       0.237
15  GGGGGUUACAGCAGAAGCGUUCACGUCGCGGCCCCUGUCAGAUUCUGGUGAAUCUGCGAAUUCUGCUGU [C6U C7U]          self-cleavage        0.86
16  GGGGGCCACACCAGAAGCGUUCGCGUCGCGGCCCCUGUCAGAUUCUGGUGAAUCUGCGAAUUCUGCUGU [G11C A23G]          self-cleavage       0.626
17  GGGGUCCACAGCAGAAGCGUUUACGUCGCGGCCCCUGUCAGAUUCUGGUGAAUCUGCGAAUUCUGCUGU [G5U C22U]          self-cleavage      0.0607
18  GGGGGCCACAGCAGAAGCGUUCACGUCGCGGCGCCUGUCGGAUUCUGGUGAAUCUGCGAAUUCUGCUGU [C33G A40G]          self-cleavage       0.648
19  GGGGGCUACAGCAGAAGCGUUCACGGCGCGGCCCCUGUCAGAUUCUGGUGAAUCUGCGAAUUCUGCUGU [C7U U26G]          self-cleavage       0.762
20  GGGGGCCACAGCAGAAGCGUUCACGUCGCGGCCCCAGUCAGAUUCUGGUGAAUCUGCGAAUCCUGCUGU [U36A U62C]          self-cleavage       0.314
21  GGGGGCCACAGCAGAAGCGUUCACGUCGCGGCCCCUGUCAGAUUCUGGUGAAUCUGCGAAAUCGGCUGU [U61A U64G]          self-cleavage       0.529
22  GGGGGCCACAGCAGAAGCGUUCCCGUCGCGGCCCCUGUCAGAUUCUGAUGAAUCUGCGAAUUCUGCUGU [A23C G48A]          self-cleavage       0.978
23  GGGGGCCACAGCACAAGCGUUCACGACGCGGCCCCUGUCAGAUUCUGGUGAAUCUGCGAAUUCUGCUGU [G14C U26A]          self-cleavage       0.346
24  GGCGGCCACAGCAGAAGCGUUCACGUCGCGGCCCCUGUCAGAUUCUGGUGAAUCUACGAAUUCUGCUGU [G3C G56A]          self-cleavage      0.0675
25  GGGGGCUACAGCAGAAGCGUUCACGUCGCGGCCCCUGUCAGAUUCAGGUGAAUCUGCGAAUUCUGCUGU [C7U U46A]          self-cleavage       0.985
26  GGGGGCCACAGCAGAAGCGUUCACGUCGCGGCCCCUGUCAGAUUCUGGAGACUCUGCGAAUUCUGCUGU [U49A A52C]          self-cleavage           1
27  GGGGGCCGCAGCAGAAGCGUUCACGUCGCGGCCCCUGUUAGAUUCUGGUGAAUCUGCGAAUUCUGCUGU [A8G C39U]          self-cleavage       0.448
28  GGGGGCCAUAGCAGAAGCGUUCACGUCGCGGCCCCUGUCAGAUUCUGGUGAAUCUGCAAAUUCUGCUGU [C9U G58A]          self-cleavage        1.03
29  GGCGGCCAUAGCAGAAGCGUUCACGUCGCGGCCCCUGUCAGAUUCUGGUGAAUCUGCGAAUUCUGCUGU [G3C C9U]          self-cleavage       0.441
30  GGGGGCCACAGCAGAGGCGUUCACGUCGCGGCCCAUGUCAGAUUCUGGUGAAUCUGCGAAUUCUGCUGU [A16G C35A]          self-cleavage       0.179
31  GGGGGCCACAGCAGAAGCGUUCACGUCGCGGCGCCUGUCAGAUUCUGGUGAAUAUGCGAAUUCUGCUGU [C33G C54A]          self-cleavage       0.369

Provenance of the data: the RNAGym collection of RNA variant scans (doi:10.7554/elife.80360)
